Source of measurements: ChEMBL document CHEMBL2203070

# assay_procedure: Cytotoxicity against human DU145 cells assessed as cell viability at 10 ug/ml
# Format: cell-based, DU-145
# condition_context: read-out: Activity
Some molecules, each annotated with its measured viability at 10 ug/ml.
attribute_measured: viability at 10 ug/ml

                                    molecule  result
 0  C/C=C/C=C/C(=O)OCC(OC(=O)/C=C/C=C/C)c1cc(OC)c(OC)c(OC)c1 (stereo unspecified)   40.8%
 1  COc1cc(C(=O)OCC(O[Si](C)(C)C(C)(C)C)c2cc(OC)c(OC)c(OC)c2I)cc(OC)c1OC (stereo unspecified)      0%
 2  COc1ccc(/C=C/C(=O)OCC(OC(=O)/C=C/c2ccccc2)c2cc(OC)c(OC)c(OC)c2I)cc1OC (stereo unspecified)   > 80%
 3  COc1cc(C(COC(C)=O)OC(C)=O)cc(OC)c1OC (stereo unspecified)   > 80%
 4  COc1cc(C(O)CO)c(I)c(OC)c1OC (stereo unspecified)   > 80%
 5  C/C=C/C(=O)OCC(OC(=O)CCCCCCCCCCC)c1cc(OC)c(OC)c(OC)c1 (stereo unspecified)   41.9%
 6  COc1cc(C(=O)OCC(O[Si](C)(C)C(C)(C)C)c2cc(OC)c(OC)c(OC)c2)cc(OC)c1OC (stereo unspecified)   > 80%
 7  COc1cc(C(O)COC(=O)C2CCCCC2)cc(OC)c1OC (stereo unspecified)   > 80%
 8  COc1cc(C(O)CO)cc(OC)c1OC (stereo unspecified)   > 80%
 9  COc1cc(C(=O)OCC(OC(=O)c2cc(OC)c(OC)c(OC)c2)c2cc(OC)c(OC)c(OC)c2I)cc(OC)c1OC (stereo unspecified)   46.6%
10  COc1cc(C(=O)OCC(O)c2cc(OC)c(OC)c(OC)c2I)cc(OC)c1OC (stereo unspecified)   > 80%
